- assay system: MinElp3 (Methanocaldococcus infernus)
- Sequence: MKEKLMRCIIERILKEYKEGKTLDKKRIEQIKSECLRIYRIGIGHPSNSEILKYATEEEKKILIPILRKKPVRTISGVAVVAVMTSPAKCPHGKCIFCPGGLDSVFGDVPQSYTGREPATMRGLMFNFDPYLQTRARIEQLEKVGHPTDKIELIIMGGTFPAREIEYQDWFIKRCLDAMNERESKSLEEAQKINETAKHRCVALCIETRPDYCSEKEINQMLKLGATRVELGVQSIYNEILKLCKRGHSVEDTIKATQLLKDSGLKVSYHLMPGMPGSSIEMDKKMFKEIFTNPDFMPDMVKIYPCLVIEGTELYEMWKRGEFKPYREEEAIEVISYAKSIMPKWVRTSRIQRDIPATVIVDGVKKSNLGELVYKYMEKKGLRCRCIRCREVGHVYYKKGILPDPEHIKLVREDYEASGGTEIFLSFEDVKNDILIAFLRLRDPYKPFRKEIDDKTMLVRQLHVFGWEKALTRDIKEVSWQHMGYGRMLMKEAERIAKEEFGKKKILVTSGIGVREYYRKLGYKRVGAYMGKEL
- assay overview: MST
- protocol conditions: EMSA: 25 C 30 min, 6% native PAGE at 4 C; tRNA stored in 20 mM HEPES pH 7.5, 150 mM NaCl, 5 mM DTT, 1 mM MgCl2; MST buffer not given in material

chain: GCUCGUAUGGCGCAGUGGUAGCGCAGCAGAUUGCAAAUCUGUUGGUCCUUAGUUCGAUCCUGAGUGCGAGCUGCGUCUUCCCAUGGGUGUAUUCGGUCG [(Sc)tRNACysGCA]
Kd [nM]: 260
